Entry source: ChEMBL document CHEMBL4270551

- assayMethodText: Selectivity index, ratio of CC50 for rat L6 cells to IC50 for Trypanosoma cruzi Tulahuen strain C2C4 amastigote forms infected in rat L6 cells
- Assay type: toxicity, cell-based
- conditionContext: read-out: Ratio CC50/IC50
Could you label it Fulfilled if measured selectivity ratio is 20 or higher, and Not fulfilled otherwise?

Worked examples follow.
1. Clc1ccc(C(c2c[nH]cc2-c2ccc(-c3ccncc3)cc2)n2ccnc2)c(Cl)c1 (centres undefined) : Not fulfilled
2. Cc1ccc(C(c2ccn(-c3ccc(F)cc3)c2)n2ccnc2)cc1 (centres undefined) : Fulfilled
3. Clc1ccc(-c2c[nH]cc2C(c2ccc(Cl)cc2Cl)n2ccnc2)c(Cl)c1 (centres undefined) : Fulfilled
4. CC(C)(C)c1ccc(-c2c[nH]cc2C(c2ccc(Cl)cc2Cl)n2ccnc2)cc1 (centres undefined) : Not fulfilled

Hello, I need to know if N#Cc1ccc(-c2c[nH]cc2C(c2ccc(Cl)cc2Cl)n2ccnc2)cc1 (centres undefined) has measured selectivity ratio not below 20. Thanks!
Not fulfilled

Hello, I need to know if Clc1ccc(-c2c[nH]cc2C(c2ccc(Cl)cc2Cl)n2ccnc2)cc1 (centres undefined) has measured selectivity ratio not below 20. Thanks!
Fulfilled

Hello, I need to know if c1ccc(C(c2ccn(-c3ccccc3)c2)n2ccnc2)cc1 (centres undefined) has measured selectivity ratio not below 20. Thanks!
Fulfilled

Hello, I need to know if Clc1ccc(-c2c[nH]cc2C(c2ccc(Cl)cc2)n2ccnc2)cc1 (centres undefined) has measured selectivity ratio not below 20. Thanks!
Fulfilled

Hello, I need to know if Clc1ccc(C(c2c[nH]cc2-c2ccc(Cl)c(Cl)c2)n2ccnc2)c(Cl)c1 (centres undefined) has measured selectivity ratio not below 20. Thanks!
Fulfilled

Hello, I need to know if Cn1cc(-c2ccc(Cl)cc2)c(C(c2ccc(Cl)cc2Cl)n2ccnc2)c1 (centres undefined) has measured selectivity ratio not below 20. Thanks!
Fulfilled

Hello, I need to know if Clc1ccc(C(c2c[nH]cc2-c2cccc3ccccc23)n2ccnc2)c(Cl)c1 (centres undefined) has measured selectivity ratio not below 20. Thanks!
Fulfilled

Hello, I need to know if Fc1ccc(-n2ccc(C(c3ccccc3)n3ccnc3)c2)cc1 (centres undefined) has measured selectivity ratio not below 20. Thanks!
Not fulfilled

Hello, I need to know if Fc1ccc(C(c2ccn(-c3ccc(Cl)cc3)c2)n2ccnc2)cc1 (centres undefined) has measured selectivity ratio not below 20. Thanks!
Not fulfilled

Hello, I need to know if Fc1ccc(C(c2ccn(-c3ccc(F)cc3)c2)n2ccnc2)cc1 (centres undefined) has measured selectivity ratio not below 20. Thanks!
Not fulfilled

Hello, I need to know if CSc1ccc(-c2c[nH]cc2C(c2ccc(Cl)cc2Cl)n2ccnc2)cc1 (centres undefined) has measured selectivity ratio not below 20. Thanks!
Fulfilled

Hello, I need to know if Cc1ccc(C(c2ccn(-c3ccc(Cl)cc3)c2)n2ccnc2)cc1 (centres undefined) has measured selectivity ratio not below 20. Thanks!
Fulfilled

Hello, I need to know if O=[N+]([O-])c1ccc(-c2c[nH]cc2C(c2ccc(Cl)cc2Cl)n2ccnc2)cc1 (centres undefined) has measured selectivity ratio not below 20. Thanks!
Not fulfilled

Hello, I need to know if Fc1ccc(-n2ccc(C(c3ccc(Cl)cc3)n3ccnc3)c2)cc1 (centres undefined) has measured selectivity ratio not below 20. Thanks!
Not fulfilled

Hello, I need to know if FC(F)(F)c1ccc(-c2c[nH]cc2C(c2ccc(Cl)cc2Cl)n2ccnc2)cc1 (centres undefined) has measured selectivity ratio not below 20. Thanks!
Fulfilled

* * *

- Test system: Trypanosoma cruzi
- assayMethodText: Antitrypanosomal activity against Trypanosoma cruzi Tulahuen strain C2C4 amastigote forms infected in rat L6 cells after 96 hrs by CPRG/Nonidet reagent based photometric method
- Format: functional, organism-based
- conditionContext: Tulahuen strain C2C4, L6, 96 h
Reported pIC50 by item:
Hey, just a heads up that pIC50 is the negative log base 10 of the concentration in molar.

Example entries and their recorded answers appear below.
1) Cc1ccc(C(c2ccn(-c3ccc(F)cc3)c2)n2ccnc2)cc1 (stereo unspecified) : 5.53
2) Fc1ccc(-n2ccc(C(c3ccccc3)n3ccnc3)c2)cc1 (stereo unspecified) : 5.21
3) CC(C)(C)c1ccc(-c2c[nH]cc2C(c2ccc(Cl)cc2Cl)n2ccnc2)cc1 (stereo unspecified) : 4.89
4) Cn1cc(-c2ccc(Cl)cc2)c(C(c2ccc(Cl)cc2Cl)n2ccnc2)c1 (stereo unspecified) : 8.70
5) Clc1ccc(C(c2c[nH]cc2-c2cccc3ccccc23)n2ccnc2)c(Cl)c1 (stereo unspecified) : 7.02

Quickly give me recorded pIC50 for Fc1ccc(C(c2ccn(-c3ccc(F)cc3)c2)n2ccnc2)cc1 (stereo unspecified)
5.34

Quickly give me recorded pIC50 for N#Cc1ccc(-c2c[nH]cc2C(c2ccc(Cl)cc2Cl)n2ccnc2)cc1 (stereo unspecified)
5.00

Quickly give me recorded pIC50 for O=[N+]([O-])c1ccc(-c2c[nH]cc2C(c2ccc(Cl)cc2Cl)n2ccnc2)cc1 (stereo unspecified)
5.49

Quickly give me recorded pIC50 for FC(F)(F)c1ccc(-c2c[nH]cc2C(c2ccc(Cl)cc2Cl)n2ccnc2)cc1 (stereo unspecified)
7.30

Quickly give me recorded pIC50 for CSc1ccc(-c2c[nH]cc2C(c2ccc(Cl)cc2Cl)n2ccnc2)cc1 (stereo unspecified)
7.37

Quickly give me recorded pIC50 for Cc1ccc(C(c2ccn(-c3ccc(Cl)cc3)c2)n2ccnc2)cc1 (stereo unspecified)
5.76

Quickly give me recorded pIC50 for Clc1ccc(-c2c[nH]cc2C(c2ccc(Cl)cc2)n2ccnc2)cc1 (stereo unspecified)
7.24

Quickly give me recorded pIC50 for Clc1ccc(C(c2c[nH]cc2-c2ccc(Cl)c(Cl)c2)n2ccnc2)c(Cl)c1 (stereo unspecified)
7.68

* * *

- Tested on: Plasmodium falciparum
- assayMethodText: Antiprotozoal activity against erythrocytic stage of chloroquine and pyrimethamine resistant Plasmodium falciparum K1 assessed as reduction in [3H]-hypoxanthine incorporation preincubated for 24 hrs followed by [3H]-hypoxanthine addition measured after 24 hrs by scintillation counting method
- Assay type: functional, organism-based
readoutType: pIC50
Hey, just a heads up that pIC50 is the negative log base 10 of the concentration in molar.

Example entries and their recorded answers appear below.
1) Clc1ccc(-c2c[nH]cc2C(c2ccc(Cl)cc2Cl)n2ccnc2)cc1 (stereo not given) : 6.80
2) Cc1ccc(C(c2ccn(-c3ccc(F)cc3)c2)n2ccnc2)cc1 (stereo not given) : 5.66
3) Fc1ccc(-n2ccc(C(c3ccc(Cl)cc3)n3ccnc3)c2)cc1 (stereo not given) : 5.50
4) Cc1ccc(C(c2ccn(-c3ccc(Cl)cc3)c2)n2ccnc2)cc1 (stereo not given) : 5.60

Provide the reported pIC50 (system: Plasmodium falciparum) for Clc1ccc(-c2c[nH]cc2C(c2ccc(Cl)cc2Cl)n2ccnc2)c(Cl)c1 (stereo not given)
6.74

Provide the reported pIC50 (system: Plasmodium falciparum) for O=[N+]([O-])c1ccc(-c2c[nH]cc2C(c2ccc(Cl)cc2Cl)n2ccnc2)cc1 (stereo not given)
6.32

Provide the reported pIC50 (system: Plasmodium falciparum) for CSc1ccc(-c2c[nH]cc2C(c2ccc(Cl)cc2Cl)n2ccnc2)cc1 (stereo not given)
6.62

Provide the reported pIC50 (system: Plasmodium falciparum) for FC(F)(F)c1ccc(-c2c[nH]cc2C(c2ccc(Cl)cc2Cl)n2ccnc2)cc1 (stereo not given)
6.85

Provide the reported pIC50 (system: Plasmodium falciparum) for Fc1ccc(C(c2ccn(-c3ccc(Cl)cc3)c2)n2ccnc2)cc1 (stereo not given)
5.40

Provide the reported pIC50 (system: Plasmodium falciparum) for Fc1ccc(C(c2ccn(-c3ccc(F)cc3)c2)n2ccnc2)cc1 (stereo not given)
5.35

* * *

- assayMethodText: Cytotoxicity against rat L6 cells after 72 hrs by alamar blue staining based fluorescence assay
- Assay type: cell-based
Reported CC50 at 72 h by item:
Number in µM, nothing else.

1) Clc1ccc(-c2c[nH]cc2C(c2ccc(Cl)cc2)n2ccnc2)cc1 (stereo unspecified) : 4.83

Quickly give me recorded CC50 at 72 h for O=[N+]([O-])c1ccc(-c2c[nH]cc2C(c2ccc(Cl)cc2Cl)n2ccnc2)cc1 (stereo unspecified)
16.9

Quickly give me recorded CC50 at 72 h for Clc1ccc(C(c2c[nH]cc2-c2ccc(-c3ccncc3)cc2)n2ccnc2)c(Cl)c1 (stereo unspecified)
15.5

Quickly give me recorded CC50 at 72 h for Fc1ccc(C(c2ccn(-c3ccc(Cl)cc3)c2)n2ccnc2)cc1 (stereo unspecified)
63.1

Quickly give me recorded CC50 at 72 h for Fc1ccc(C(c2ccn(-c3ccc(F)cc3)c2)n2ccnc2)cc1 (stereo unspecified)
87.1

Quickly give me recorded CC50 at 72 h for Clc1ccc(-c2c[nH]cc2C(c2ccc(Cl)cc2Cl)n2ccnc2)c(Cl)c1 (stereo unspecified)
9.86

* * *

- assayMethodText: Selectivity index, ratio of CC50 for rat L6 cells to IC50 for Leishmania donovani MHOM/ET/67/L82 axenic amastigotes
- Assay type: toxicity
- conditionContext: read-out: Ratio CC50/IC50
Rule for this label: met means selectivity ratio is less than 2; not met means selectivity ratio is at least 2.

Worked examples follow.
1. Clc1ccc(-c2c[nH]cc2C(c2ccc(Cl)cc2Cl)n2ccnc2)cc1 (stereo not drawn) : not met
2. Clc1ccc(-c2c[nH]cc2C(c2ccc(Cl)cc2)n2ccnc2)cc1 (stereo not drawn) : met
3. Cc1ccc(C(c2ccn(-c3ccc(Cl)cc3)c2)n2ccnc2)cc1 (stereo not drawn) : not met

Field: below-cutoff. Rule: recorded selectivity ratio strictly less than 2. Subject: Fc1ccc(C(c2ccn(-c3ccc(Cl)cc3)c2)n2ccnc2)cc1 (stereo not drawn)
not met

Field: below-cutoff. Rule: recorded selectivity ratio strictly less than 2. Subject: c1ccc(C(c2ccn(-c3ccccc3)c2)n2ccnc2)cc1 (stereo not drawn)
not met
